# assay: Cytotoxicity against human Huh-7 cells harboring viral replicon/EGFP/Neo genes assessed as cell viability at 50 uM incubated for 24 hrs by Cell Titer Glo assay relative to control
# Type: toxicity, cell-based
# stated.conditions: read-out: Activity
assay.endpoint: viability at 24 h, 50 µM (%)
Give just the number in %; leave the unit off.

Below, 2 molecules whose answers are already recorded.
> print(dat)
                      smiles.representation  observed.value
1  O=C(/C=C/c1cc(O)c(O)c(O)c1Cl)c1ccc(F)cc1            71.4
2  O=C(/C=C/c1c(Cl)c(O)c(O)c(O)c1Cl)c1ccc(C(F)(F)F)cc1            43.8

Consider the additional molecule presented here.
The molecule listed as O=C(/C=C/c1c(Cl)c(O)c(O)c(O)c1Cl)c1ccc(F)cc1Cl has a reported viability at 24 h, 50 µM of 56.9
